Target: Batx-I (Bothrops atrox)
Sequence (P0DJE1 whole entry, looked up): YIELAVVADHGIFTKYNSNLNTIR
pIC50: −log10 of the molar value.
# label = yes if pIC50 >= 3 else no

compound structure string | classification
C=C(C)[C@@H]1CC[C@]2(CO)CC[C@]3(C)[C@H](CC[C@@H]4[C@@]5(C)CC[C@H](O)C(C)(C)[C@@H]5CC[C@]43C)[C@@H]12 | no
CC1(C)CC[C@]2(C(=O)O)CC[C@]3(C)C(=CC[C@@H]4[C@@]5(C)CC[C@H](O)C(C)(C)[C@@H]5CC[C@]43C)[C@@H]2C1 | yes
C[C@H]1[C@H](C)CC[C@]2(C(=O)O)CC[C@]3(C)C(=CC[C@@H]4[C@@]5(C)C[C@@H](O)[C@H](O)[C@@](C)(CO)[C@@H]5[C@H](O)C[C@]43C)[C@H]12 | yes
C=C(C)[C@@H]1CC[C@]2(C(=O)O)CC[C@]3(C)[C@H](CC[C@@H]4[C@@]5(C)CC[C@H](O)C(C)(C)[C@@H]5CC[C@]43C)[C@@H]12 | yes

Now for a further compound.
# bool: pIC50 of C[C@H]1[C@H](C)CC[C@]2(C(=O)O)CC[C@]3(C)C(=CC[C@@H]4[C@@]5(C)CC[C@H](O)C(C)(C)[C@@H]5CC[C@]43C)[C@H]12 >= 3
yes
